Exercise: for every item that follows, state its recorded growth.
Test system: KM12 colon
assay.info: NCI-60 one-dose screen, 48 h (100 = growth as untreated, 0 = no growth, -100 = all killed)
details: 10 µM unless noted
The panel holds about 83,000 compounds, 20% with a hit somewhere; the sample as a whole holds those more often.
Dear colleague, please return just the value in %, with no unit written.

Per the records, this molecule ( `COc1cc(CNC(=O)Cc2ccccc2)ccc1OCc1cn(-c2ccc(F)cc2)nn1` ) has growth equal to 108

Per the records, this molecule ( `O=C(CCc1nnc2sc(-c3ccc(Cl)cc3Cl)nn12)c1nc2ncccc2[nH]1` ) has growth equal to -52.2

Per the records, this molecule ( NC1C(N)C(N)C1N (stereo unspecified) ) has growth equal to 119

Per the records, this molecule ( `Nc1nonc1-n1nncc1-c1cccnc1` ) has growth equal to 105

Per the records, this molecule ( `CCOC(=O)c1cnc2ccc(Cl)cc2c1NCCCN(C)C` ) has growth equal to 17.5

Per the records, this molecule ( `COc1cc(/C=C2\CN(C)C/C(=C\c3cc(CN4CCCCC4)c(O)c(OC)c3)C2=O)cc(CN2CCCCC2)c1O` ) has growth equal to 5.98

Per the records, this molecule ( `COc1ccc(OC)c(NC(=O)/C(C#N)=C/c2ccco2)c1` ) has growth equal to 95.5

Per the records, this molecule ( `O=C(N/N=C/c1ccccc1Cl)C(=O)Nc1cccc(C(F)(F)F)c1` ) has growth equal to 103

Per the records, this molecule ( S=C1NC2(c3ccccc3)CCC(=S)N2c2ccccc21 (stereo unspecified) ) has growth equal to 108

Per the records, this molecule ( COc1ccccc1N1CCN(C(CNS(=O)(=O)c2ccc(Cl)cc2)c2cccnc2)CC1 (stereo unspecified) ) has growth equal to 61.4

Per the records, this molecule ( `Cn1c(=O)n(C)c2cc(CNCCNc3ccnc4cc(Cl)ccc34)ccc21` ) has growth equal to 54.5

* * *

Test system: SK-OV-3 ovarian
assay.info: NCI-60 one-dose screen, 48 h
details: 10 µM unless noted
This is part of a sample that, as a whole, favours compounds with a hit. Of some 83,000 tested, about 20% had one in any assay. Calls of active or inactive are those of the source. The calls were made as follows: active = growth percent below 10; inactive = the rest.
Answer with one of the outcomes given here: 1 = active, -1 = inactive

## Input Tell me the assay call for COc1ccc(-c2nsc3c2NC(=O)CC3c2cccc(OC)c2)cc1 (stereo not given) please.
## Output -1

## Input Tell me the assay call for `COc1cc(C#N)cc2[nH]c(=O)oc12` please.
## Output -1

## Input Tell me the assay call for `NNC(=O)CNC(=O)Nc1n[nH]c(=S)s1` please.
## Output -1

## Input Tell me the assay call for `COc1cc(C(=O)O/N=C(\N)Cc2cccc3ccccc23)cc(OC)c1OC` please.
## Output -1

## Input Tell me the assay call for `O=S(=O)(c1ccccc1)n1cc2c(c1-c1ccccc1)CCc1sc(Nc3ccccc3)nc1-2` please.
## Output -1

## Input Tell me the assay call for `CCOC(=O)c1sc(-c2ccc(OS(=O)(=O)C[C@]34CCC(CC3=O)C4(C)C)c(C=O)c2)nc1C` please.
## Output -1

## Input Tell me the assay call for `O=c1oc2ccc(Cl)cc2c(=O)n1-c1cc(C(F)(F)F)cc(C(F)(F)F)c1` please.
## Output 1

## Input Tell me the assay call for `c1ccc(-c2ccc(-c3nc4ccccc4[nH]3)cc2)cc1` please.
## Output -1

## Input Tell me the assay call for O=S1(=O)N(Cc2ccccc2)[C@@H](Cc2ccccc2)C2O[C@H]2[C@H](Cc2ccccc2)N1Cc1ccccc1 (stereo not given in full) please.
## Output -1

## Input Tell me the assay call for `COc1ccc(CCN2C(=O)CCSC2=S)cc1OC` please.
## Output -1

* * *

Tested on: HT29 colon
assay.info: NCI-60 one-dose screen, 48 h
details: 10 µM unless noted
About 83,000 compounds went through this panel and 20% of them were active in at least one assay; those are over-represented in the sample as a whole. Active and inactive are the calls of the source. Rule for the calls: active = growth percent below 10; inactive = the rest.
Answer with one of the outcomes given here: active, inactive

## Input Tell me the assay call for `Brc1ccc(Oc2ccc(Nc3ncnc4onc(-c5ccccc5)c34)cc2)cc1` please.
## Output inactive

## Input Tell me the assay call for `Cc1cccc2c(=O)c3c(sc12)c(NCCN)nc1ccccc13` please.
## Output active

## Input Tell me the assay call for `COc1ccc2occ(C3=C(c4c[nH]c5ccccc45)C(=O)NC3=O)c2c1` please.
## Output inactive

## Input Tell me the assay call for `CCOC(=O)C1=C(C)c2ccc(OC)c(OC)c2C1` please.
## Output inactive

## Input Tell me the assay call for CN1C(=O)N(C)C2Nn3c(s/c(=C\c4ccc(Cl)cc4Cl)c3=O)=NC21 (stereo not drawn) please.
## Output inactive

## Input Tell me the assay call for `NCCNc1nc2ccc(F)cc2c2c(=O)c3cc(F)ccc3sc12` please.
## Output active

## Input Tell me the assay call for `COc1cc(C(=O)O/N=C(\N)Cc2cccc3ccccc23)cc(OC)c1OC` please.
## Output active

## Input Tell me the assay call for `COc1cc(/C=C2\CN(S(=O)(=O)c3ccccc3)C/C(=C\c3cc(CN4CCCC4)c(O)c(OC)c3)C2=O)cc(CN2CCCC2)c1O` please.
## Output active

## Input Tell me the assay call for `COC(=O)c1ccc(NC(=O)CSc2nc3ccccc3c(=O)n2-c2ccccc2)cc1` please.
## Output inactive

## Input Tell me the assay call for `COc1ccccc1C(=O)/C=C/c1ccccc1` please.
## Output inactive

## Input Tell me the assay call for COc1ccc(/C=c2\sc3n(c2=O)NC2C(N=3)N(C)C(=O)N2C)cc1 (stereo not drawn) please.
## Output inactive

## Input Tell me the assay call for `CCCCN1CCN(c2ccc3nc(-c4ccc5nc(-c6ccc(OC)c(OC)c6)[nH]c5c4)[nH]c3c2)CC1` please.
## Output active

## Input Tell me the assay call for `COC(=O)/C(CCC=C(C)C)=C1\[C@@H](OC(C)=O)C[C@@]2(C)[C@H]1CC(=O)N[C@H]1[C@@]3(C)CCNC(=O)[C@@H](C)[C@@H]3CC[C@@]12C` please.
## Output inactive

## Input Tell me the assay call for COC(=O)[C@H](NC(=O)C1(C)CCC[C@]2(C)[C@H]3C[C@H]4C(C(C)C)=C[C@]3(CC[C@@H]12)[C@@H]1C(=O)CCC(=O)[C@@H]14)C(C)C (stereo partly drawn) please.
## Output inactive

## Input Tell me the assay call for Cc1ccccc1CNC(=O)C1CN(c2ccc(Cl)cc2)N(c2ccc(Cl)cc2)C1=O (stereo not drawn) please.
## Output inactive

## Input Tell me the assay call for `Cc1sc2ncn(CC(=O)Nc3ccc(S(N)(=O)=O)cc3)c(=O)c2c1C` please.
## Output inactive

## Input Tell me the assay call for COc1ccc(CN2CCCC(C(=O)c3ccc(C(F)(F)F)cc3)C2)c(O)c1 (stereo not drawn) please.
## Output active

## Input Tell me the assay call for `O=C(Nc1ccc(I)cc1F)c1cc(F)ccc1O` please.
## Output inactive

## Input Tell me the assay call for `COC(=O)/C(=C\c1c(C)[nH]c2ccccc12)S(=O)(=O)c1ccccc1` please.
## Output active

## Input Tell me the assay call for `Cc1ccc(S(=O)(=O)c2c(COC(=O)c3cccc(C)c3)c(-c3ccccc3)nn2C)cc1` please.
## Output active

## Input Tell me the assay call for CCN1C(=O)N(c2ccccc2)C2NN=c3s/c(=C4\C(=O)N(C(C)C)c5ccccc54)c(=O)n3C21 (stereo not drawn) please.
## Output active

## Input Tell me the assay call for Nc1ccn(C2O[C@H](CO)[C@@H](O)[C@H]2O)c(=O)n1 (stereo partly drawn) please.
## Output inactive

## Input Tell me the assay call for Oc1c(C(Nc2ccccn2)c2cccc(Oc3ccccc3)c2)ccc2cccnc12 (stereo not drawn) please.
## Output active

## Input Tell me the assay call for `COc1cc(/C=C/C(=O)c2ccc(Nc3nc(NCCO)nc(N4CCOCC4)n3)cc2)cc(OC)c1OC` please.
## Output active

## Input Tell me the assay call for O=C1CCC(N2C(=O)c3cccc(NCCCCCCOc4ccc(Nc5nccc(Nc6ccccc6)n5)cc4)c3C2=O)C(=O)N1 (stereo not drawn) please.
## Output inactive

## Input Tell me the assay call for `CN(C)/C=C1\SC(=Nc2ccc(Cl)cc2)NC1=O` please.
## Output inactive

## Input Tell me the assay call for COc1ccc(CCN2C(=O)/C(=C/c3ccc(C4Oc5ccccc5C5CC(c6cccc(OC)c6)=NN54)cc3)SC2=S)cc1 (stereo not drawn) please.
## Output inactive

## Input Tell me the assay call for `CC(=O)c1ccc(NC(=O)Nc2ccc(S(=O)(=O)Nc3ccc(Cl)nn3)cc2)cc1` please.
## Output inactive

## Input Tell me the assay call for O=C(c1nc2ccccc2[nH]1)C1C(c2cccc([N+](=O)[O-])c2)C2CC3CCCCC3N2[C@@]12C(=O)Nc1cc(Cl)ccc12 (stereo partly drawn) please.
## Output inactive

## Input Tell me the assay call for `CCCCCCc1cc2cc(-c3csc(/C=C/c4ccccc4)n3)c(=O)oc2cc1O` please.
## Output active

## Input Tell me the assay call for `CC(C)C[C@H](C(=O)N[C@H](C(N)=O)C(C)C)N1CC=CCN(OCc2ccccc2)S1(=O)=O` please.
## Output inactive

## Input Tell me the assay call for `CN1CCN(Cc2ccc(C(=O)Nc3cncc(C#Cc4cnc5cccnn45)c3)cc2C(F)(F)F)CC1` please.
## Output inactive

## Input Tell me the assay call for `O=c1oc2ccc(Cl)cc2c(=O)n1-c1ccc(Cl)cc1F` please.
## Output active

## Input Tell me the assay call for `O=Nc1c(O)ccc2ccccc12.O=Nc1c(O)ccc2ccccc12.O=Nc1c([O-])ccc2ccccc12.[Fe+3]` please.
## Output inactive

## Input Tell me the assay call for CCOc1cc2c(cc1OCC)C(c1cc(C)c(O)c(C)c1)NCC2 (stereo not drawn) please.
## Output inactive

## Input Tell me the assay call for `CCOC(=O)c1cc2c(n1Cc1cc(OC)cc(OC)c1)-c1oncc1CCC2` please.
## Output active

## Input Tell me the assay call for CCN1C(=O)N(CC)C2Nn3c(s/c(=C\c4ccccc4F)c3=O)=NC21 (stereo not drawn) please.
## Output inactive

## Input Tell me the assay call for `O=C(Nc1ccc(F)cc1F)c1cc(Cl)ccc1O` please.
## Output inactive
